Reference source for all entries: ChEMBL document CHEMBL1139344

Molecular target: Adenosine receptor A2b (Homo sapiens)
Sequence (P29275 whole entry): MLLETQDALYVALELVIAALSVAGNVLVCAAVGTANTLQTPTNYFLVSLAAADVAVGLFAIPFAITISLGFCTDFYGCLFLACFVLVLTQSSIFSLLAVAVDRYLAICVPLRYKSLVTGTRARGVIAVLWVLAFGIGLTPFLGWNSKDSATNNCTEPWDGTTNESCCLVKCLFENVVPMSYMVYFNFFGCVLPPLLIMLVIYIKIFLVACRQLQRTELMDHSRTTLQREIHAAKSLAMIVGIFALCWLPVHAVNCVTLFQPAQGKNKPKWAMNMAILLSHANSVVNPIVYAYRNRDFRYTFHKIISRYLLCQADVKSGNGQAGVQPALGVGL
Experiment: Displacement of radioligand from human recombinant adenosine A2B receptor at 21 degC after 60 mins by cell-based microplate scintillation counting
pKi: −log10 of the molar value.
Reported pKi values are given for each entry in this list.
Quantity measured: pKi

[[record]]
structure_smiles_string = "Nc1cccc(Cn2nnc3c(-c4ccco4)nc(N)nc32)c1"
quantity_measured = "pKi"
value = 6.57

[[record]]
structure_smiles_string = "Nc1nc(-c2ccco2)c2nnn(Cc3c(F)cccc3F)c2n1"
quantity_measured = "pKi"
value = 7.62

[[record]]
structure_smiles_string = "Nc1nc(-c2ccco2)c2nnn(Cc3ccc4[nH]ncc4c3)c2n1"
quantity_measured = "pKi"
value = 6.69

[[record]]
structure_smiles_string = "Nc1nc(-c2ccco2)c2nnn(Cc3cccc(C(=O)O)c3)c2n1"
quantity_measured = "pKi"
value = 5.68

[[record]]
structure_smiles_string = "Nc1nc(-c2ccco2)c2nnn(Cc3cccc(O)c3)c2n1"
quantity_measured = "pKi"
value = 8.00

[[record]]
structure_smiles_string = "Nc1nc(-c2cccs2)c2nnn(Cc3ccccc3F)c2n1"
quantity_measured = "pKi"
value = 6.61

[[record]]
structure_smiles_string = "CC(=O)Nc1ccc(Cn2nnc3c(-c4ccco4)nc(N)nc32)cc1"
quantity_measured = "pKi"
value = 6.35

[[record]]
structure_smiles_string = "Nc1nc(-c2ccco2)c2nnn(Cc3cccs3)c2n1"
quantity_measured = "pKi"
value = 7.06

[[record]]
structure_smiles_string = "Cc1ccccc1Cn1nnc2c(-c3ccco3)nc(N)nc21"
quantity_measured = "pKi"
value = 6.55

[[record]]
structure_smiles_string = "Cc1cnc(-c2nc(N)nc3c2nnn3Cc2ccccc2F)s1"
quantity_measured = "pKi"
value = 6.70

[[record]]
structure_smiles_string = "Cc1ccc(-c2nc(N)nc3c2nnn3Cc2ccccc2F)o1"
quantity_measured = "pKi"
value = 8.22

[[record]]
structure_smiles_string = "Nc1nc(-c2ccco2)c2nnn(Cc3cccc([N+](=O)[O-])c3)c2n1"
quantity_measured = "pKi"
value = 6.19

[[record]]
structure_smiles_string = "Nc1nc(-c2ccco2)c2nnn(Cc3ccccn3)c2n1"
quantity_measured = "pKi"
value = 6.59

[[record]]
structure_smiles_string = "CC(C)c1cc(Cn2nnc3c(-c4ccco4)nc(N)nc32)ccc1N"
quantity_measured = "pKi"
value = 6.40

[[record]]
structure_smiles_string = "CNc1ccc(Cn2nnc3c(-c4ccco4)nc(N)nc32)cc1"
quantity_measured = "pKi"
value = 6.74

[[record]]
structure_smiles_string = "CC(C)N(C)C(=O)c1cccc(Cn2nnc3c(-c4ccco4)nc(N)nc32)c1"
quantity_measured = "pKi"
value = 6.03

[[record]]
structure_smiles_string = "Nc1nc(-c2ccco2)c2nnn(Cc3ccc4[nH]ccc4c3)c2n1"
quantity_measured = "pKi"
value = 7.23

[[record]]
structure_smiles_string = "Nc1nc(-c2ccco2)c2nnn(Cc3cccc(C(F)(F)F)c3)c2n1"
quantity_measured = "pKi"
value = 6.59

[[record]]
structure_smiles_string = "CC(C)NC(=O)c1cccc(Cn2nnc3c(-c4ccco4)nc(N)nc32)c1"
quantity_measured = "pKi"
value = 6.23

[[record]]
structure_smiles_string = "Nc1nc(-c2ccco2)c2nnn(Cc3ccccc3F)c2n1"
quantity_measured = "pKi"
value = 6.96

[[record]]
structure_smiles_string = "COC(=O)c1cccc(Cn2nnc3c(-c4ccco4)nc(N)nc32)c1"
quantity_measured = "pKi"
value = 6.04

[[record]]
structure_smiles_string = "COc1ccccc1Cn1nnc2c(-c3ccco3)nc(N)nc21"
quantity_measured = "pKi"
value = 6.13

[[record]]
structure_smiles_string = "Nc1nc(-c2ccco2)c2nnn(Cc3ccc4[nH]nnc4c3)c2n1"
quantity_measured = "pKi"
value = 6.87

